These data points were gathered from PubChem BioAssay AID540252.

System name: glucose-6-phosphate dehydrogenase-6-phosphogluconolactonase (Plasmodium falciparum 3D7)
Experiment: inhibition of P. falciparum G6PD activity – biochemical, end-point NADPH detection, orthogonal assay, dose response (AID 540252)
Experimental setup: purified PfG6PD enzyme, NADPH direct detection
The source made the active and inactive calls. The rule behind the calls is not given here.
Your reply should match one of these outcome classes. active, inactive

Input line: Which result was noted for this compound in the test: COc1ccc(N2CSC3=C(C#N)C(c4ccc(OC)c(OC)c4)CC(=O)N3C2)c(OC)c1 (stereo unspecified)
Output line: inactive

Input line: Could you kindly confirm the outcome this assay logged for c1cc2c(cc1NC1CCCCCC1)OCO2 ?
Output line: inactive

Input line: Per the assay record, what outcome was assigned to Cc1[nH]c2ccccc2c1/C=N/NC(=O)c1cccc(S(=O)(=O)Nc2ccccc2Cl)c1 ?
Output line: inactive

Input line: Could you kindly confirm the outcome this assay logged for O=C(O)c1cccc(N2C(=O)C=CC2=O)c1 ?
Output line: active

Input line: For O=c1[nH]c(NCCO)c(N=Cc2ccccc2)c(=O)[nH]1 , what call appears in the results of this test?
Output line: inactive

Input line: Dear colleague, could you share the recorded outcome for CC(=O)Nc1ccc(S(=O)(=O)/N=C2\C(=O)c3ccccc3C([O-])=C2n2cc[n+](-c3ccccn3)c2)cc1 when you have a moment?
Output line: inactive

Input line: What did this assay record as the result for NC(=O)N/N=C/c1ccc(-n2nncc2-c2ccc(Cl)cc2)cc1 ?
Output line: inactive

Input line: Fill in: this test's call for CN1CCN(C(=S)c2ccc(Br)cc2)CC1 is ___
Output line: inactive

Input line: Assay outcome for CCC(=O)OCCNc1cc(Sc2nc3ccccc3s2)c2nonc2c1[N+](=O)[O-] : what was it?
Output line: inactive

Input line: For COc1ccc(C(=O)Nc2nnc(S(=O)(=O)N3CCOCC3)s2)cc1 , which call appears in the assay record?
Output line: inactive

Input line: Returns: the outcome recorded for COc1ccc(S(=O)(=O)/N=C2\C=C(Nc3ccc(O)cc3)C(=O)c3ccccc32)cc1 in this assay.
Output line: inactive

Input line: Field: outcome | Entry: COc1cc(C(=O)ON=C2C=C(C)C(=O)C(C)=C2)cc(OC)c1OC
Output line: inactive

Input line: Which outcome was entered for the compound O=C(Nc1nnc(S(=O)(=O)N2CCCCC2)s1)c1cccc(Br)c1 in this test?
Output line: inactive

Input line: Can you look up the reported call for CCN(CC)c1ccc(NC(=O)c2cccc(C)c2)cc1S(=O)(=O)Nc1ccccc1OC for me?
Output line: inactive

Input line: Hi, do you know how C(=N\Nc1nc2ccccc2[nH]1)/c1ccccn1 came out in this test?
Output line: inactive

Input line: Field: outcome | Entry: CC(C)c1cc2c(c(O)c1O)[C@@]13CCCC(C)(C)C1CC2OC3=O (stereo partly specified)
Output line: inactive

Input line: GET /call?item= COc1cc(-c2cc(OC)c(O)c(OC)c2)cc(OC)c1O returns the recorded outcome of this test.
Output line: inactive

Input line: I'd appreciate the recorded outcome for Cc1ccc(C)c(-n2sc3ccc(F)cc3c2=O)c1 from this test.
Output line: active

Input line: Outcome logged for ClC(Cl)(c1nnnn1-c1ccccc1)c1nnnn1-c1ccccc1 in this assay:
Output line: active

Input line: Outcome? O=C(Nc1ccc(N2CCOCC2)c(Cl)c1)c1ccc(Cl)cc1
Output line: inactive

Input line: Write down the call the test reported for this compound. Item: C[C@H](NC(=O)c1cc2c(cn1)[nH]c1ccccc12)C(=O)O
Output line: inactive

Input line: Short answer needed: outcome of this test for CCCN1CCc2cccc3c2[C@H]1Cc1ccc(O)c(O)c1-3 ?
Output line: inactive

Input line: Test call for this compound, please: COc1ccc(NC(=S)N(CCC(C)C)C2CCN(C(C)C)CC2)cc1Cl
Output line: inactive

Input line: For OCCN1CCN(C(=S)c2ccc(-c3ccccc3)cc2)CC1 , which call appears in the assay record?
Output line: inactive

Input line: Assay result, entry CC1CCc2[nH]c3ccc(C(=O)N(C)CC(=O)Nc4ccccc4C(F)(F)F)cc3c2C1 (stereo unspecified) — outcome?
Output line: inactive

Input line: Per the assay record, what outcome was assigned to Cc1ccc(-n2sc3ccccc3c2=O)cc1 ?
Output line: active

Input line: Query: recorded result category for Cn1c(=O)[nH]c(=O)c2c1nc([N+](=O)[O-])n2Cc1ccccc1 in this test
Output line: inactive

Input line: # fetch the recorded call for Cc1c(C(=O)N(Cc2ccccc2Cl)C2CCS(=O)(=O)C2)oc2ccccc12 (stereo unspecified) here
Output line: inactive

Input line: Hi, do you know how C=CCN1C=C2C(=O)C(C)(OC(=O)CCC(=O)OC)C(=O)C(Br)=C2C=C1c1ccc(OC)cc1 (stereo unspecified) came out in this test?
Output line: inactive

Input line: Record request — test call for c1cc(CNc2ccc3c(c2)OCO3)ccn1
Output line: inactive

Input line: Answer briefly: the call reported for Cn1sc2ccccc2c1=O in this assay.
Output line: active

Input line: What classification did Cc1cc(C)c2c(=O)n(CC(=O)Nc3ccc(Cl)cc3)sc2n1 end up with in this test?
Output line: inactive

Input line: I'd appreciate the recorded outcome for CCCn1cc(S(=O)(=O)CC(=O)Nc2ccc(OC)cc2OC)c2ccccc21 from this test.
Output line: inactive

Input line: Record request — test call for C[n+]1c(-c2ccccc2)cc2c(=Cc3ccc([N+](=O)[O-])cc3)c3ccccc3n21
Output line: inactive

Input line: Which outcome did this test record for the compound CC(C)c1nnc(NC(=O)c2cc3ccccc3o2)s1 ?
Output line: inactive

Input line: Recorded test call requested for CN1/C(=C\C(=O)c2cccs2)Sc2ccccc21
Output line: inactive

Input line: Query: recorded result category for [O-]/[N+](=C\c1ccncc1)c1ccccc1 in this test
Output line: inactive

Input line: Write down the call the test reported for this compound. Item: Nc1c(C(=O)Nc2ccc(F)cc2)sc(=S)n1-c1ccccc1F
Output line: inactive

Input line: In this assay, the call recorded for O=C1NC(=O)C(=Cc2ccc(-c3ccccc3[N+](=O)[O-])o2)C(=O)N1 was what?
Output line: inactive

Input line: Record lookup: outcome of this test for C[c-]1[c-](C)[c-](C)[c-](C)[c-]1C.[Fe].c1cc2nccc(N3CCCC3)[c-]2c1 (stereo unspecified) ?
Output line: inactive

Input line: Per the records of this test, what outcome belongs to O=[N+]([O-])c1ccc(Sc2cccc3cccnc23)c2cccnc12 ?
Output line: inactive

###

System name: glucose-6-phosphate dehydrogenase-6-phosphogluconolactonase (Plasmodium falciparum 3D7)
Experiment: inhibition of P. falciparum G6PD activity – biochemical, end-point NADPH detection, orthogonal assay, dose response (AID 540252)
Experimental setup: purified PfG6PD enzyme, NADPH direct detection
Activity calls are given as the source filed them. No rule for the calls is given here.
Outcome measure: IC50

Input line: Look at this molecule and give its reported IC50. O=c1[nH]c2ccccc2n2c(-c3ccccc3)nnc12
Output line: > 80 µM (inactive)

Input line: Suppose we examine the molecule COc1cc(NCCCn2ccc(NC(=O)OCc3ccccc3)nc2=O)cc(OC)c1OC ; what IC50 value has been reported?
Output line: > 80 µM (inactive)

Input line: Could you share which IC50 value was measured for CC(NC(=O)c1sc2cc([N+](=O)[O-])ccc2c1Cl)C(C)(C)C (stereo not drawn) ?
Output line: > 80 µM (inactive)
